target: mortalin-NBD (Homo sapiens, UniProt P38646); experiment: ITC binding of modified ADP analogues to mortalin-NBD; conditions: ITC, 25 °C, mortalin-NBD, binding enthalpy change
Sequence (P38646 52-431): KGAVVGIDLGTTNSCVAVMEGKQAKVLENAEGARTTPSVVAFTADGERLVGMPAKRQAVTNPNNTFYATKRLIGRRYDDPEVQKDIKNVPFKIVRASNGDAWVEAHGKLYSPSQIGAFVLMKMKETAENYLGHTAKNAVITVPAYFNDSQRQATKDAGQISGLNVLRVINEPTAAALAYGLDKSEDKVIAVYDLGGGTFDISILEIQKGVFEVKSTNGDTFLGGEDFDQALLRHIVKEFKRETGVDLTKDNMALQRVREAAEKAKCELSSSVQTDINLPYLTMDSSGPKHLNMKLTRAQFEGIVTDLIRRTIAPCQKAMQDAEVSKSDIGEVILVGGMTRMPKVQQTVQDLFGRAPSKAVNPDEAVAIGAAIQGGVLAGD
propertyLabel: ΔΗ (kJ/mol)

[
  {
    "molecule": "O=P(O)(O)OP(=O)(O)OC[C@H]1O[C@@H](n2cnc3c(NCc4ccccc4)ncnc32)[C@H](O)[C@@H]1O [6-Bn ADP, N6-benzyladenosine-5’-diphosphate]",
    "propertyLabel": "ΔΗ",
    "resultValue": -12.5
  },
  {
    "molecule": "CSc1nc(N)c2ncn([C@@H]3O[C@H](COP(=O)(O)OP(=O)(O)O)[C@@H](O)[C@H]3O)c2n1 [2-MeS ADP, 2-methylthio-adenosine-5’-diphosphate]",
    "propertyLabel": "ΔΗ",
    "resultValue": -12.4
  },
  {
    "molecule": "O=P(O)(O)OP(=O)(O)OC[C@H]1O[C@@H](n2cnc3c(NCc4ccco4)ncnc32)[C@H](O)[C@@H]1O [6-Fu ADP, N6-furfuryladenosine-5’-diphosphate]",
    "propertyLabel": "ΔΗ",
    "resultValue": -21.1
  },
  {
    "molecule": "Cc1cccc(CNc2ncnc3c2ncn3[C@@H]2O[C@H](COP(=O)(O)OP(=O)(O)O)[C@@H](O)[C@H]2O)c1",
    "propertyLabel": "ΔΗ",
    "resultValue": -13.1
  },
  {
    "molecule": "O=P(O)(O)OP(=O)(O)OC[C@H]1O[C@@H](n2cnc3c(NC4CCCCC4)ncnc32)[C@H](O)[C@@H]1O [6-cHe ADP, N6-cyclohexyladenosine-5’-diphosphate]",
    "propertyLabel": "ΔΗ",
    "resultValue": -22.09
  },
  {
    "molecule": "Nc1ncnc2c1ncn2[C@@H]1O[C@H](COP(=O)(O)OP(=O)(O)O)[C@@H](O)[C@H]1O [ADP, reference compound]",
    "propertyLabel": "ΔΗ",
    "resultValue": -27.3
  },
  {
    "molecule": "O=P(O)(O)OP(=O)(O)OC[C@H]1O[C@@H](n2cnc3c(NCCc4ccccc4)ncnc32)[C@H](O)[C@@H]1O",
    "propertyLabel": "ΔΗ",
    "resultValue": -33.9
  },
  {
    "molecule": "Nc1nc(Cl)nc2c1ncn2[C@@H]1O[C@H](COP(=O)(O)OP(=O)(O)O)[C@@H](O)[C@H]1O",
    "propertyLabel": "ΔΗ",
    "resultValue": -19.0
  }
]

Hey, just so you know, these numbers are from paper PMC6690775.
